IC50 by entry:
- Tested on: HMEC (Others)
- protocol_description: SRB assay, HMEC
- Assay type: cell-based
- conditions: Homo sapiens, 72 h, read-out: IC50 (μM) (mean ± SD)
State the answer as a number, implicitly in µM.

As a guide, the following entries are already answered.
CO[C@@H](C(=O)N[C@@H](C)C(=O)NCCOC(=O)C12CC3CC(CC(C3)C1)C2)[C@H](O)[C@@H](O)[C@H](O)/C=C/C(C)(C)C
0.17
CCOC(=O)C(COC(=O)C1CCCCC1)NC(=O)[C@H](C)NC(=O)[C@H](OC)[C@H](O)[C@@H](O)[C@H](O)/C=C/C(C)(C)C (stereo partly shown) [Compound L558a]
0.25
CO[C@@H](C(=O)N[C@@H](C)C(=O)NCCOC(=O)CCc1ccccc1)[C@H](O)[C@@H](O)[C@H](O)/C=C/C(C)(C)C
0.21

Q: What value of IC50 has been recorded for this entry: CO[C@@H](C(=O)N[C@H]1CC[C@@H](OC(=O)C2CCCCC2)CNC1=O)[C@H](O)[C@@H](O)[C@H](O)/C=C/C(C)(C)C [LAF389, reference compound]
Ans: 0.83

----------
- Tested on: SGC-7901 (Gastric Cancer)
- protocol_description: SRB assay, SGC-7901
- Format: cell-based
- conditions: Homo sapiens, 72 h, read-out: IC50 (μM) (mean ± SD)
Measured IC50 of individual entries
Give the value, in units of µM, as a plain number.

Q: Look up IC50 with SGC-7901 (Gastric Cancer) for this compound: CCOC(=O)C(COC(=O)C1CCCCC1)NC(=O)[C@H](C)NC(=O)[C@H](OC)[C@H](O)[C@@H](O)[C@H](O)/C=C/C(C)(C)C (stereo partly shown) [Compound L558a]
Ans: 1.97

----------
- System: MDA-MB-435S human breast cancer cells
- protocol_description: MTT assay, proliferation of MDA-MB-435S cells
- Assay type: cell-based
- conditions: Homo sapiens, 72 h, note: MDA-MB-435S, read-out: IC50 (MDA-MB-435)
1 if IC50 is below 500 nM. 0 if not; exact matches included in 0.

CCOC(=O)C(COC(=O)C1CCCCC1)NC(=O)[C@H](C)NC(=O)[C@H](OC)[C@H](O)[C@@H](O)[C@H](O)/C=C/C(C)(C)C (some centres unmarked) [Compound L558a]
1
CO[C@@H](C(=O)N[C@@H](C)C(=O)NCCOC(=O)C1CCCCC1)[C@H](O)[C@@H](O)[C@H](O)/C=C/C(C)(C)C [Compound L486d]
1
CO[C@@H](C(=O)N[C@@H](C)C(=O)NCCOC(=O)CCc1ccccc1)[C@H](O)[C@@H](O)[C@H](O)/C=C/C(C)(C)C [Compound L508]
1
CO[C@@H](C(=O)N[C@@H](C)C(=O)NCCOC1CCCCC1)[C@H](O)[C@@H](O)[C@H](O)/C=C/C(C)(C)C [Compound L458e]
0
CO[C@@H](C(=O)N[C@@H](C)C(=O)NCCOC(=O)C1CC=CCC1)[C@H](O)[C@@H](O)[C@H](O)/C=C/C(C)(C)C (some centres unmarked) [Compound L484]
0

Below: the item to evaluate.
Q: Could you please tell me whether IC50 recorded for CCOC(=O)CNC(=O)[C@H](C)NC(=O)[C@H](OC)[C@H](O)[C@@H](O)[C@H](O)/C=C/C(C)(C)C [Compound L418] is less than 500 nM?
Ans: 0
